Tested on: SW-620 colon
ASSAY INFO: NCI tumour cell line growth inhibition, 48 h
Record form. Attribute: TGI. Fill in for each entry.

Prompt: Please give the documented TGI of CN(/N=C/c1cccc2cccnc12)c1ccccc1
Completion: > 100 µM

Prompt: Please give the documented TGI of CS[C@]12C(=O)C[C@@]3(C)[C@@H](CC[C@]3(O)C(=O)CO)[C@@H]1CCC1=CC(=O)CC[C@@]12C
Completion: > 100 µM

Prompt: Please give the documented TGI of CC1=NN(c2nc(N)nc(/C(C#N)=C/c3cccn3-c3cc(Cl)cc(Cl)c3)n2)C(C)(C)C1
Completion: > 100 µM

Prompt: Please give the documented TGI of O=C(NN1C(=O)CSC12CCCC2)c1[nH]c2ccc(Br)cc2c1-c1ccccc1
Completion: > 100 µM

Prompt: Please give the documented TGI of O=c1c2cc(I)ccc2nc(-c2cccs2)n1-c1ccc(O)cc1
Completion: 69.6 µM

Prompt: Please give the documented TGI of CCOC(=O)c1cc2c3c(c(C(C)=O)c(O)c2[nH]1)N(CC(C)CC)CC3 (stereo not given)
Completion: > 100 µM

Prompt: Please give the documented TGI of CCOC(=O)Cc1cc(OC)c(OC)cc1/C(Cl)=C(\C=O)c1ccc(OC)c(OC)c1
Completion: 57 µM

Prompt: Please give the documented TGI of CCCCCCCCCCCCCCCCCCNc1ccn(C2OC(COP(=O)(O)OCC3OC(n4cc(F)c(NCCCCCCCCCCCCCCCCCC)nc4=O)CC3O)C(O)C2O)c(=O)n1 (stereo not given)
Completion: > 100 µM

Prompt: Please give the documented TGI of COc1cc(/C=C2/C[C@H]3[C@@H]4CC=C5C[C@@H](OC(C)=O)CC[C@]5(C)[C@H]4CC[C@]3(C)NC2=O)cc(OC)c1OC
Completion: > 100 µM

Prompt: Please give the documented TGI of NCCCN(CCCN)CCN(CCN(CCCN)CCCN)CCN(CCCN)CCCN
Completion: > 100 µM

Prompt: Please give the documented TGI of CN(C)c1nc2oc(-c3ccccc3)c(-c3ccccc3)c2c2nnnn12
Completion: > 100 µM

Prompt: Please give the documented TGI of N#CC(c1nc2ccccc2nc1Cl)S(=O)(=O)c1ccccc1 (stereo not given)
Completion: > 100 µM

Prompt: Please give the documented TGI of CCN(C(=S)N[C@H](C(=O)N[C@@H](C)C(=O)OC)C(C)C)c1ccccc1
Completion: > 100 µM

Prompt: Please give the documented TGI of Cc1ccccc1NC(=O)C(=O)CC(=O)c1c(C)n([O-])c2ccccc2[n+]1=O
Completion: > 100 µM

Prompt: Please give the documented TGI of C=C1c2[nH]c3c([N+](=O)[O-])c(OC)ccc3c2CCN1C(C)=O
Completion: > 100 µM

Prompt: Please give the documented TGI of COc1ccc(C(=O)Cc2ccc(Br)cc2)cc1OC
Completion: > 100 µM

Prompt: Please give the documented TGI of CCOC(=O)c1cnc2oc3ccc(O)cc3c2c1-c1ccccc1
Completion: > 100 µM

Prompt: Please give the documented TGI of O=CC1CCCc2ccccc21 (stereo not given)
Completion: > 56.6 µM

Prompt: Please give the documented TGI of CCc1cccc(C)c1NC(=O)C(=O)Cc1nc2ccccc2s1
Completion: > 100 µM

Prompt: Please give the documented TGI of C/C=C(/COC(C)=O)C(=O)OC1C=C(C=O)C(C)(C)C=C1C (stereo not given)
Completion: > 100 µM

// data source = PubChem BioAssay (NCI)
